TESTED_ON: C3G-AAPA-Y554H (human, UniProt Q13905-1 4-1077, Y554H)
Sequence (Q13905 other isoform, or with tags, fused parts or gaps Y554H | Y554H): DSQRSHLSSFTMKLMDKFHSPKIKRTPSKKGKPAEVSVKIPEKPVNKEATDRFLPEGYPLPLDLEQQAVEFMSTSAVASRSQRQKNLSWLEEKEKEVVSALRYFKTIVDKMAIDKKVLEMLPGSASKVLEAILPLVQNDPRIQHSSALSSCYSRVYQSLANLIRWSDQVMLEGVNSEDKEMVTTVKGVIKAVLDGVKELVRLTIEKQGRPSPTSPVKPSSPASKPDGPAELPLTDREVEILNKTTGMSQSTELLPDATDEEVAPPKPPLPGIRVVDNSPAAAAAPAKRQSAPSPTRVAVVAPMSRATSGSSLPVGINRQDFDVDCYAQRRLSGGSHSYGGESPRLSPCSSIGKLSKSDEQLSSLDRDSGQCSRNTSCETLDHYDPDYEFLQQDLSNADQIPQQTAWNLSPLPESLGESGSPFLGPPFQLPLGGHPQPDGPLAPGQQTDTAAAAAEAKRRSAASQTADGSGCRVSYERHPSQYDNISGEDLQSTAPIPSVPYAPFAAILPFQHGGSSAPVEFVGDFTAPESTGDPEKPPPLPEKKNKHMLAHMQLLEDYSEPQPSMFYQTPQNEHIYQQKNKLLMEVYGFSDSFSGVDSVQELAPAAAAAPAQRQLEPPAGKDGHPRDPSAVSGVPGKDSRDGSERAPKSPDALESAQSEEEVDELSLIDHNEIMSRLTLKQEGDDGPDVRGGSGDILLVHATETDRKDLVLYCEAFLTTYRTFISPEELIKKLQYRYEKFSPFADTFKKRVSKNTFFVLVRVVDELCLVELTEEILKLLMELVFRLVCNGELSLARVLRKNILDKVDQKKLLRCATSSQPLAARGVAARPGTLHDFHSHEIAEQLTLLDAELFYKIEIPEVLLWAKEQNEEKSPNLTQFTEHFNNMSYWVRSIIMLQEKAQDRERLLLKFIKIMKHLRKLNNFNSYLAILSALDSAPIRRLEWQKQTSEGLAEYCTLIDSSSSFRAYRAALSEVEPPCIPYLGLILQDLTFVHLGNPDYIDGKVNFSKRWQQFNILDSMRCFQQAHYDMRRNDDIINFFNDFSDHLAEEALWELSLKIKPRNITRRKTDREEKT
TEST: ITC; single-PRM mutants of C3G in the cell titrated with full-length CrkL or CrkL-SH3N; 25 °C; 1:1 model in SEDPHAT; N is the competent fraction of C3G
CONDITION_PARAMETERS: both partners purified
PROPERTY_NAME: pKd
Keep in mind that pKd stands for -log10 of concentration in molar terms.

What measured pKd goes with CrkL-SH3N (residues 125-182) (domain or fragment, human, UniProt P46109 125-182, looked up, human CrkL, SH3N domain, residues 125-182, in pETEV15b; also called SH3N domain of CrkL; isolated SH3N domain; source: E. coli BL21 (DE3), purified (His-tagged, purified in a similar manner as C3G)) LEYVRTLYDFPGNDAEDLPFKKGEILVIIEKPEEQWWSARNKDGRVGMIPVPYVEKLV ?
6.10
